Source of measurements: patent US10226452B2

# system-under-test: human (hAC) acid ceramidase (Homo sapiens (Human), UniProt Q13510)
# Sequence (Q13510 22-142): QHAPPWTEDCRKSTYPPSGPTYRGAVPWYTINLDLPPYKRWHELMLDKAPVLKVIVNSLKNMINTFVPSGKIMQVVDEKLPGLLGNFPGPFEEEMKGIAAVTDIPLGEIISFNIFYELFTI
# Sequence (Q13510 143-395): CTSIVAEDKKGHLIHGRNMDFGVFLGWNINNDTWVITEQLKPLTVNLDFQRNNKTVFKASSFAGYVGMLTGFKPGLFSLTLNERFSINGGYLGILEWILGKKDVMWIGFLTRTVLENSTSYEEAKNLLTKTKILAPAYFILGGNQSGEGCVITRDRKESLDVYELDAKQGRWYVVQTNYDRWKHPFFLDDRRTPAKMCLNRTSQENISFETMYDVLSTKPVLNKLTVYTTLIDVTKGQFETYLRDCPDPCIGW
# experimental-details: fluorescent-based in vitro assay on human acid ceramidase
# Type: biochemical
# experimental-context: hAC-enriched lysosomal lysate from HEK293 cells; fluorogenic probe 5 μM; pH 4.5
assay-readout: IC50 (nM)

| substance-smiles | observed-result |
| --- | --- |
| CCC(=O)c1ccc2c(c1)oc(=O)n2C(=O)NCCCCc1ccccc1 | 16 |
| O=C(c1ccccc1)c1ccc2c(c1)oc(=O)n2C(=O)NCCCCc1ccccc1 | 29 |
| COc1ccc2c(c1)oc(=O)n2C(=O)NCCCCc1ccccc1 | 52 |
| COc1ccc(CCCCNC(=O)n2c(=O)oc3ccccc32)cc1 | 63 |
| O=C(NCCCCc1ccccc1)n1c(=O)oc2ccc(Br)cc21 | 22 |

---

# system-under-test: human (hAC) acid ceramidase (Homo sapiens (Human))
# experimental-details: fluorescent-based in vitro assay on human acid ceramidase
# Assay type: biochemical
# experimental-context: hAC-enriched lysosomal lysate from HEK293 cells; fluorogenic probe 5 μM; pH 4.5

| molecule | system-under-test | IC50 [nM] |
| --- | --- | --- |
| O=C(NCCCCc1cccs1)n1c(=O)oc2ccccc21 [Example 44] | human (hAC) acid ceramidase (Homo sapiens (Human)) | 99 |
| O=C(NCCCCc1ccccc1)n1c(=O)oc2cc(F)ccc21 [Example 3] | human (hAC) acid ceramidase (Homo sapiens (Human)) | 10 |
| CCCCCCCNC(=O)n1c(=O)oc2ccccc21 [Example 59] | human (hAC) acid ceramidase (Homo sapiens (Human)) | 50 |
| O=C(NCCCCc1ccccc1)n1c(=O)oc2cc([N+](=O)[O-])ccc21 [Example 12] | human (hAC) acid ceramidase (Homo sapiens (Human)) | 3 |
| O=C(NCCCCc1ccccc1)n1c(=O)oc2c(-c3ccccc3)cccc21 [Example 27] | human (hAC) acid ceramidase (Homo sapiens (Human)) | 91 |
| O=C(NCCCCc1ccccc1)n1c(=O)oc2cccc(-c3ccccc3)c21 [Example 26] | human (hAC) acid ceramidase (Homo sapiens (Human)) | 0.8 |
| Cc1ccc2c(c1)oc(=O)n2C(=O)NCCCCc1ccccc1 [Example 9] | human (hAC) acid ceramidase (Homo sapiens (Human)) | 66 |
| O=C(NCCCCCCc1ccccc1)n1c(=O)oc2ccccc21 [Example 58] | human (hAC) acid ceramidase (Homo sapiens (Human)) | 99 |
| O=C(NCCCCc1ccccc1)n1c(=O)oc2ccc(C(F)(F)F)cc21 [Example 13] | human (hAC) acid ceramidase (Homo sapiens (Human)) | 11 |
| O=C(NCCCCc1ccc2ccccc2c1)n1c(=O)oc2ccccc21 [Example 52] | human (hAC) acid ceramidase (Homo sapiens (Human)) | 57 |

---

# system-under-test: human (hAC) acid ceramidase (Homo sapiens (Human), UniProt Q13510)
# experimental-details: fluorescent-based in vitro assay on human acid ceramidase
# Format: biochemical
# experimental-context: hAC-enriched lysosomal lysate from HEK293 cells; fluorogenic probe 5 μM; pH 4.5
Threshold-based label: IC50 under 50 nM gives met, IC50 not under 50 nM gives not met.

| molecule | class-name |
| --- | --- |
| CCC[C@H]1CC[C@H](CNC(=O)n2c(=O)oc3ccccc32)CC1 [Example 40] | not met |
| O=C(NCCCCc1ccccc1)n1c(=O)oc2cc(-c3ccccc3)ccc21 [Example 23] | not met |
| O=C(NCCCCc1ccc(F)cc1)n1c(=O)oc2ccccc21 [Example 46] | not met |
| CCCc1ccc(CNC(=O)n2c(=O)oc3ccccc32)cc1 [Example 41] | met |
| CCCCCCCCNC(=O)n1c(=O)oc2ccccc21 [Example 42] | met |
| O=C(NCCCCc1ccccc1)n1c(=O)oc2ccc(Cl)cc21 [Example 4] | met |
| Cc1cccc2c1oc(=O)n2C(=O)NCCCCc1ccccc1 [Example 18] | met |
| O=C(NCCCCc1ccccc1)n1c(=O)oc2ccccc21 [Example 1] | not met |
| O=C(NCCCCc1ccccc1)n1c(=O)oc2cc(Cl)c(Cl)cc21 [Example 16] | met |
| O=C(NCCCCCc1ccccc1)n1c(=O)oc2ccccc21 [Example 57] | not met |

---

# system-under-test: human (hAC) acid ceramidase (Homo sapiens (Human), UniProt Q13510)
# experimental-details: fluorescent-based in vitro assay on human acid ceramidase
# Format: biochemical
# experimental-context: hAC-enriched lysosomal lysate from HEK293 cells; fluorogenic probe 5 μM; pH 4.5
Please respond with true when measured IC50 is strictly beneath 20 nM, and with false in all other cases.

| molecule | class-name |
| --- | --- |
| O=C(NCCCCc1ccccc1)n1c(=O)oc2ccc(-c3ccccc3)cc21 [Example 20] | false |
| Cc1ccc2oc(=O)n(C(=O)NCCCCc3ccccc3)c2c1 [Example 8] | false |
| O=C(NCCCc1ccccc1)n1c(=O)oc2ccccc21 [Example 43] | false |
| O=C(NCCCCc1ccccc1)n1c(=O)oc2ccc(-c3ccc(F)cc3)cc21 [Example 22] | false |
| COc1ccc(-c2ccc3oc(=O)n(C(=O)NCCCCc4ccccc4)c3c2)cc1 [Example 21] | false |
| O=C(c1ccc(Cl)cc1)c1ccc2c(c1)oc(=O)n2C(=O)NCCCCc1ccccc1 [Example 38] | true |
| O=C(NCCCCc1ccccc1)n1c(=O)oc2ccc([N+](=O)[O-])cc21 [Example 11] | true |
| O=C(NCCCc1cccc(F)c1)n1c(=O)oc2ccccc21 [Example 50] | false |

---

# system-under-test: human (hAC) acid ceramidase (Homo sapiens (Human))
# experimental-details: fluorescent-based in vitro assay on human acid ceramidase
# Type: biochemical
# experimental-context: hAC-enriched lysosomal lysate from HEK293 cells; fluorogenic probe 5 μM; pH 4.5
Each entry below lists one item and its recorded IC50 value.

| compound | system-under-test | IC50, nM |
| --- | --- | --- |
| O=C(NCCCCc1ccccc1)n1c(=O)oc2cc(Cl)ccc21 [Example 5] | human (hAC) acid ceramidase (Homo sapiens (Human)) | 33 |
| O=C(NCCCCC1CCCCC1)n1c(=O)oc2ccccc21 [Example 39] | human (hAC) acid ceramidase (Homo sapiens (Human)) | 62 |
| O=C(NCCCCc1ccccc1)n1c(=O)oc2cc(Br)ccc21 [Example 7] | human (hAC) acid ceramidase (Homo sapiens (Human)) | 33 |
| O=C(NCCCCc1ccccc1)n1c(=O)oc2cc(O)ccc21 [Example 35] | human (hAC) acid ceramidase (Homo sapiens (Human)) | 152 |
| O=C(NCCCCc1ccccc1)n1c(=O)oc2c(Br)cccc21 [Example 19] | human (hAC) acid ceramidase (Homo sapiens (Human)) | 18 |
| COc1ccc(-c2ccc3c(c2)oc(=O)n3C(=O)NCCCCc2ccccc2)cc1 [Example 24] | human (hAC) acid ceramidase (Homo sapiens (Human)) | 67 |
| O=C(NCCCCc1ccccc1)n1c(=O)oc2cccc(F)c21 [Example 56] | human (hAC) acid ceramidase (Homo sapiens (Human)) | 1 |
| N#Cc1ccc2oc(=O)n(C(=O)NCCCCc3ccccc3)c2c1 [Example 15] | human (hAC) acid ceramidase (Homo sapiens (Human)) | 11 |
| O=C(NCCCCc1ccccc1)n1c(=O)oc2ccc(F)cc21 [Example 2] | human (hAC) acid ceramidase (Homo sapiens (Human)) | 56 |
| Cc1ccc(CCCCNC(=O)n2c(=O)oc3ccccc32)cc1 [Example 47] | human (hAC) acid ceramidase (Homo sapiens (Human)) | 28 |
